System Tested: hCA IX (Homo sapiens)
Construct: gene CA9; recombinant
Test Details: stopped-flow CO2 hydration assay
Type: biochemical

| Compound | Ki |
| --- | --- |
| NS(=O)(=O)c1ccc(CCNc2nc(Nc3ccc(O)cc3)nc(Nc3ccc(/C=C/c4ccccc4)cc3)n2)cc1 | 2470 nM |
| NS(=O)(=O)c1ccc(Nc2nc(Cl)nc(NCCCO)n2)cc1 | 229 nM |
| NS(=O)(=O)c1ccc(CCNc2nc(Nc3ccc(O)cc3)nc(Nc3ccc(C(=O)/C=C/c4cccc(O)c4)cc3)n2)cc1 | > 10000 nM |
| NS(=O)(=O)c1ccc(CNc2nc(NCCCO)nc(Nc3ccc(C(=O)/C=C/c4ccc(O)cc4)cc3)n2)cc1 | 161 nM |
| NS(=O)(=O)c1ccc(CCNc2nc(NCCCO)nc(Nc3ccc(C(=O)/C=C/c4cccc(O)c4)cc3)n2)cc1 | > 10000 nM |
| NS(=O)(=O)c1ccc(CCNc2nc(NCC(O)CO)nc(Nc3ccc(/C=C/c4ccccc4O)cc3)n2)cc1 (stereo not shown) | 2710 nM |
| NS(=O)(=O)c1ccc(CCNc2nc(NCC(O)CO)nc(Nc3ccc(/C=C/c4cccc(O)c4)cc3)n2)cc1 (stereo not shown) | 17.3 nM |

* * *

System Tested: hCA II (Homo sapiens, UniProt P00918)
Construct: gene CA2; recombinant
Test Details: biochemical
Set-up: stopped-flow CO2 hydration assay, phenol red indicator at 557 nm, 15 min preincubation with inhibitor

| Compound | Unit Of Measure | Ki |
| --- | --- | --- |
| NS(=O)(=O)c1ccc(CNc2nc(NCC(O)CO)nc(Nc3ccc(C(=O)/C=C/c4ccc(O)cc4)cc3)n2)cc1 (stereo not shown) | nM | 184 |

* * *

System Tested: hCA II (Homo sapiens)
Construct: gene CA2; recombinant
Test Details: stopped-flow CO2 hydration assay
Type: biochemical
Description: stopped-flow CO2 hydration assay on hCA II
Measured Ki by item

| Compound | Ki / nM |
| --- | --- |
| NS(=O)(=O)c1ccc(CCNc2nc(NCCCO)nc(Nc3ccc(/C=C/c4cccc(O)c4)cc3)n2)cc1 | 73.5 |
| NS(=O)(=O)c1ccc(CNc2nc(NCCCO)nc(Nc3ccc(C(=O)/C=C/c4ccccc4)cc3)n2)cc1 | 277 |
| NS(=O)(=O)c1ccc(CCNc2nc(NCC(O)CO)nc(Nc3ccc(/C=C/c4ccccc4O)cc3)n2)cc1 (centres unmarked) | 5630 |
| NS(=O)(=O)c1ccc(CCNc2nc(NCc3ccc(S(N)(=O)=O)cc3)nc(Nc3ccc(/C=C/c4ccccc4)cc3)n2)cc1 | 57.9 |
| NS(=O)(=O)c1ccc(CCNc2nc(NCc3ccc(S(N)(=O)=O)cc3)nc(Nc3ccc(/C=C/c4cccc(O)c4)cc3)n2)cc1 | 18.9 |
| NS(=O)(=O)c1ccc(CCNc2nc(NCC(O)CO)nc(Nc3ccc(/C=C/c4ccccc4)cc3)n2)cc1 (centres unmarked) | 335 |
| NS(=O)(=O)c1ccc(CCNc2nc(Nc3ccc(O)cc3)nc(Nc3ccc(/C=C/c4ccccc4O)cc3)n2)cc1 | 5470 |
| NS(=O)(=O)c1ccc(CCNc2nc(Nc3ccc(O)cc3)nc(Nc3ccc(/C=C/c4cccc(O)c4)cc3)n2)cc1 | 154 |
| NS(=O)(=O)c1ccc(CCNc2nc(NCC(O)CO)nc(Nc3ccc(/C=C/c4cccc(O)c4)cc3)n2)cc1 (centres unmarked) | 4440 |
| NS(=O)(=O)c1ccc(CCNc2nc(Nc3ccc(O)cc3)nc(Nc3ccc(C(=O)/C=C/c4ccccc4O)cc3)n2)cc1 | 63.8 |
| NS(=O)(=O)c1ccc(Nc2nc(NCCCO)nc(Nc3ccc(/C=C/c4cccc(O)c4)cc3)n2)cc1 | 3640 |
| NS(=O)(=O)c1ccc(CCNc2nc(NCc3ccc(S(N)(=O)=O)cc3)nc(Nc3ccc(/C=C/c4ccc(O)cc4)cc3)n2)cc1 | 252 |
| NS(=O)(=O)c1ccc(CCNc2nc(Nc3ccc(O)cc3)nc(Nc3ccc(/C=C/c4ccccc4)cc3)n2)cc1 | 7490 |
| NS(=O)(=O)c1ccc(CCNc2nc(NCCCO)nc(Nc3ccc(/C=C/c4ccccc4)cc3)n2)cc1 | 5130 |
